- experimental-details: amyloid nucleation score (Sup35N fusion, yeast selection) (log enrichment); library NNK3; higher = more nucleation; inactive = no reads after selection;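 note: zero at mode of non-aggregating sequences after 7 days selection at 30°C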
attribute-measured: amyloid nucleation score

substance	measured
IPNMDAFLERRPREYNWPVA	inactive
SVGKWMYRPSEYGACCASGY	inactive
VIPARADATGPKEHGWLQLQ	inactive
KDRHVSYFGLYKLGWRYTPS	inactive
YHYLSNVGMRWGDFTYSWFM	inactive
WSNNMWYVRYSDFCISCLLV	inactive
YIFEPV	0.318
CYLCVAAGWSMATPLRGGLA	inactive
PTRNYCLLVKDY	inactive
IRSKCR	inactive
IYSVYWDGMEPSIRTGWI	inactive
FPWYAIFSHSMLCVDIQDF	0.958
PITMLE	inactive
PRLLRVSAIKSGRCPKGKKS	inactive
WFFFDIAWRSPTIRRWTSSM	inactive
FVSKHRVSTIWRVISHMRGG	-0.257
ACTLDTLFSFVPSHNWSGQK	inactive
YRKLFDFRRVSTLHFTKSN	inactive
NICLKNSVS	inactive
RYKAVRRKYPGCRLGWMRPL	inactive
LVYLSASFVW	0.108
QYFPDIY	inactive
FHPFMCSYGSGWDGRLVHCG	inactive
DLGLERLAFS	inactive
EYNPWFDCWICSEVSATNNR	1.96
SLSHECTSNKTEQVIERRLW	inactive
PRRSERYFCFF	0.443
HLSRNVRLS	inactive
TWFLTPLNTFIFLLVPLFGL	inactive
TTFATSCNMWYHRSILHS	inactive
GCKMVGRICSDIICSVGVME	0.988
VNYRSNIFNHYCSFSRN	0.934
IILLSGDSSSRIQEVKVGKK	inactive
YRDRIVNHIVGLLGIGS	1.16
ILTHIVWLFVRLSCMNWNWL	inactive
RHWDVLK	inactive
KFSSMGTVSLSGKSLYSDAV	inactive
